# SYSTEM NAME: AMPK alpha2/beta1/gamma1 (Homo sapiens, UniProt P54619+P54646+Q9Y478)
# Sequence (P54646 whole entry): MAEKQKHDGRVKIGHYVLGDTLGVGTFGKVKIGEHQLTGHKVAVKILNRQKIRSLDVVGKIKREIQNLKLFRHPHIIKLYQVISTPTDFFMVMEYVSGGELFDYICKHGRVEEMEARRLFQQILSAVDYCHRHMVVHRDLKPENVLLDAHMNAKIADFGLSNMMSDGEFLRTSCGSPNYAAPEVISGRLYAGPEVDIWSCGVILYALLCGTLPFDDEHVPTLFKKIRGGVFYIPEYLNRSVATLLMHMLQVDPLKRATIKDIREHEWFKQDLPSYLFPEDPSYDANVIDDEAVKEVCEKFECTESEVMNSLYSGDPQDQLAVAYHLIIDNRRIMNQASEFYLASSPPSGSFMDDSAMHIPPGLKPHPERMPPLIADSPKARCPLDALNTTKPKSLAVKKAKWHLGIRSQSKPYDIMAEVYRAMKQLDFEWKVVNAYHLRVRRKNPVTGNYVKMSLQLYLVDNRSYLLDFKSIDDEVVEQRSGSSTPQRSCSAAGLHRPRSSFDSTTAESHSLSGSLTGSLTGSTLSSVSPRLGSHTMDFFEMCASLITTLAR
# Sequence (P54619 whole entry): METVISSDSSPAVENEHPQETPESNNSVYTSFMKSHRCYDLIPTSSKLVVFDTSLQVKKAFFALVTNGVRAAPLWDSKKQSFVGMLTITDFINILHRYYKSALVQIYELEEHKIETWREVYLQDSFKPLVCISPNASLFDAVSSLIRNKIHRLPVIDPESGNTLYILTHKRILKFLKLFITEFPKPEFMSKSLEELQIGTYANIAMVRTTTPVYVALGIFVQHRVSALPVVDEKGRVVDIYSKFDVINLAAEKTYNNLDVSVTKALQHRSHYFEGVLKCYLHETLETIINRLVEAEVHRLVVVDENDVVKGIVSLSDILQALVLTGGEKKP
# Sequence (Q9Y478 whole entry): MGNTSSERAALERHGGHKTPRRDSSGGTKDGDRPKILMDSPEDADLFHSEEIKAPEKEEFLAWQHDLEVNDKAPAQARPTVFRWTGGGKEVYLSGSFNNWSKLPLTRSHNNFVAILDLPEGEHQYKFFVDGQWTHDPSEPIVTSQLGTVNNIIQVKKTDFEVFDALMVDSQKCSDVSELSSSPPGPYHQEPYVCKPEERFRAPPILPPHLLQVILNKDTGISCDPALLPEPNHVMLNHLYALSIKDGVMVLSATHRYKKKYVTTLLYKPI
# METHOD DESCRIPTION: Allosteric activation of AMPK alpha2/beta1/gamma1 in human HepG2 cells by scintillation proximity assay
pEC50: −log10 of the molar value.
Outcome label depends on pEC50 relative to 6: at/above gives YES, below gives NO.

{"columns": ["QUERY SMILES", "GROUP LABEL"],
 "data": [
  ["C[C@H](CCCNCc1ccccn1)[C@H]1CC[C@@]2(C)[C@@H]3CC=C4[C@@H](CC[C@H](O)C4(C)C)[C@]3(C)[C@H](O)C[C@]12C", "NO"],
  ["COc1ccc(CCNCCC[C@@H](C)[C@H]2CC[C@@]3(C)[C@@H]4CC=C5[C@@H](CC[C@H](O)C5(C)C)[C@]4(C)[C@H](O)C[C@]23C)cc1OC", "YES"],
  ["COc1ccc(NCCC[C@@H](C)[C@H]2CC[C@@]3(C)[C@@H]4CC=C5[C@@H](CC[C@H](O)C5(C)C)[C@]4(C)[C@H](O)C[C@]23C)cc1", "NO"],
  ["C[C@H](CC[C@@H](O)C(C)(C)O)[C@H]1CC[C@@]2(C)[C@@H]3CC=C4[C@@H](CC[C@H](O)C4(C)C)[C@]3(C)[C@H](O)C[C@]12C", "NO"],
  ["C[C@H](CCCNCCc1ccccc1)[C@H]1CC[C@@]2(C)[C@@H]3CC=C4[C@@H](CC[C@H](O)C4(C)C)[C@]3(C)[C@H](O)C[C@]12C", "NO"]
]}

###

# SYSTEM NAME: AMPK alpha2/beta1/gamma1 (Homo sapiens, UniProt P54619+P54646+Q9Y478)
# METHOD DESCRIPTION: Allosteric activation of AMPK alpha2/beta1/gamma1 in human HepG2 cells by scintillation proximity assay

{"columns": ["QUERY SMILES", "UNIT STRING", "EC50"],
 "data": [
  ["C[C@H](CCCNCc1ccc(Cl)cc1)[C@H]1CC[C@@]2(C)[C@@H]3CC=C4[C@@H](CC[C@H](O)C4(C)C)[C@]3(C)[C@H](O)C[C@]12C", "nM", 600],
  ["CNCCC[C@@H](C)[C@H]1CC[C@@]2(C)[C@@H]3CC=C4[C@@H](CC[C@H](O)C4(C)C)[C@]3(C)[C@H](O)C[C@]12C", "nM", 7400],
  ["COc1ccc(CNCCC[C@@H](C)[C@H]2CC[C@@]3(C)[C@@H]4CC=C5[C@@H](CC[C@H](O)C5(C)C)[C@]4(C)[C@H](O)C[C@]23C)cc1OC", "nM", 200],
  ["CC(C)NCCC[C@@H](C)[C@H]1CC[C@@]2(C)[C@@H]3CC=C4[C@@H](CC[C@H](O)C4(C)C)[C@]3(C)[C@H](O)C[C@]12C", "nM", 140],
  ["C[C@H](NCCC[C@@H](C)[C@H]1CC[C@@]2(C)[C@@H]3CC=C4[C@@H](CC[C@H](O)C4(C)C)[C@]3(C)[C@H](O)C[C@]12C)c1ccccc1", "nM", 1700],
  ["CCCNCCC[C@@H](C)[C@H]1CC[C@@]2(C)[C@@H]3CC=C4[C@@H](CC[C@H](O)C4(C)C)[C@]3(C)[C@H](O)C[C@]12C", "nM", 150]
]}

###

# SYSTEM NAME: AMPK alpha2/beta1/gamma1 (Homo sapiens, UniProt P54619+P54646+Q9Y478)
# METHOD DESCRIPTION: Allosteric activation of AMPK alpha2/beta1/gamma1 in human HepG2 cells by scintillation proximity assay
Lab note: compare EC50 with 2000 nM, writing label 1 if less and label 0 if equal or more.

{"columns": ["COMPOUND", "GROUP LABEL"],
 "data": [
  ["C[C@H](CCCNCc1ccccc1)[C@H]1CC[C@@]2(C)[C@@H]3CC=C4[C@@H](CC[C@H](O)C4(C)C)[C@]3(C)[C@H](O)C[C@]12C", "label 1"],
  ["C[C@H](CCCNC(C)(C)C)[C@H]1CC[C@@]2(C)[C@@H]3CC=C4[C@@H](CC[C@H](O)C4(C)C)[C@]3(C)[C@H](O)C[C@]12C", "label 1"],
  ["C[C@H](CCCNCCc1ccc([N+](=O)[O-])cc1)[C@H]1CC[C@@]2(C)[C@@H]3CC=C4[C@@H](CC[C@H](O)C4(C)C)[C@]3(C)[C@H](O)C[C@]12C", "label 1"],
  ["Nc1ncnc2c1ncn2[C@@H]1O[C@H](COP(=O)(O)O)[C@@H](O)[C@H]1O [ADENOSINE PHOSPHATE]", "label 1"],
  ["C[C@H](CCCNCc1ccc(F)cc1)[C@H]1CC[C@@]2(C)[C@@H]3CC=C4[C@@H](CC[C@H](O)C4(C)C)[C@]3(C)[C@H](O)C[C@]12C", "label 1"],
  ["C[C@H](CCCNC1CC1)[C@H]1CC[C@@]2(C)[C@@H]3CC=C4[C@@H](CC[C@H](O)C4(C)C)[C@]3(C)[C@H](O)C[C@]12C", "label 0"]
]}

###

# SYSTEM NAME: AMPK alpha2/beta1/gamma1 (Homo sapiens, UniProt P54619+P54646+Q9Y478)
# METHOD DESCRIPTION: Allosteric activation of AMPK alpha2/beta1/gamma1 in human HepG2 cells by scintillation proximity assay
pEC50: −log10 of the molar value.
# reported pEC50; entries follow
ATTRIBUTE MEASURED: pEC50

{"columns": ["QUERY SMILES", "RESULT"],
 "data": [
  ["C[C@H](CCCNCc1ccncc1)[C@H]1CC[C@@]2(C)[C@@H]3CC=C4[C@@H](CC[C@H](O)C4(C)C)[C@]3(C)[C@H](O)C[C@]12C", 6.30],
  ["C[C@H](CCCNCc1cccnc1)[C@H]1CC[C@@]2(C)[C@@H]3CC=C4[C@@H](CC[C@H](O)C4(C)C)[C@]3(C)[C@H](O)C[C@]12C", 6.15],
  ["CCNCCC[C@@H](C)[C@H]1CC[C@@]2(C)[C@@H]3CC=C4[C@@H](CC[C@H](O)C4(C)C)[C@]3(C)[C@H](O)C[C@]12C", 5.30],
  ["C[C@H](CCCNCCN1CCNCC1)[C@H]1CC[C@@]2(C)[C@@H]3CC=C4[C@@H](CC[C@H](O)C4(C)C)[C@]3(C)[C@H](O)C[C@]12C", 6.30],
  ["C[C@H](CCCNCCCn1ccnc1)[C@H]1CC[C@@]2(C)[C@@H]3CC=C4[C@@H](CC[C@H](O)C4(C)C)[C@]3(C)[C@H](O)C[C@]12C", 5.46]
]}
